test_system: human TFPI alpha (full-length TFPIα) (human, UniProt P10646 29-304)
test_protocol: cell-based or functional assay
Catalogue of Peak (nM); thrombin generation, FVIII-neutralised plasma + 20 nM TFPIα; 200 nM antibody readings, one per entry.
Write it as a number; the unit nM goes unstated.

See these solved cases before continuing.
INSERT INTO results (binder, observed_value) VALUES
  ('mAb 2021 (antibody, IgG4, V domains shown) VH: EVQLVESGGGLVKPGGSLRLSCAASGFTFSNYAMSWVRQTPEKRLEWVATISRSGSYSYFPDSVQGRFTISRDNAKNSLYLQMNSLRAEDTAVYYCARLGGYDEGDAMDSWGQGTTVTVSS VL: DIVMTQTPLSLSVTPGQPASISCKSSQSLLESDGKTYLNWYLQKPGQSPQLLIYLVSILDSGVPDRFSGSGSGTDFTLKISRVEAEDVGVYYCLQATHFPQTFGGGTKVEIKR', 17.2),
  ('mAb 2F22 (antibody, IgG1, V domains shown) VH: QVQLKQSGPGLVQPSQSLSITCTVSGFSLTNYGVHWVRQSPGKGLEWLAVIWRGGSIDYNAAFMSRLSITKDNSKSQVFFKMNSLQADDTAIYYCAKNSHGNYVGYAMDYWGQGTSVTVSS VL: GIVMTQSQKFMSTTVGDRVSITCKASQSVGPAVAWYQQKPGQSPKLLIYSASNRYTGVPDRFTGSGSGADFTLTISNLHSEDLADYFCQQYTSYPTFGGGTKLEIKR', 23.7),
  ('mAb 2F3 (antibody, IgG1, V domains shown) VH: QVQLKQSGPGLVQPSQSLSITCTVSGFSLSSYGVHWVRQSPGKGLEWLGVIWRGGSTDFNAAFMSRVSFTKDNSKSQVFFKMNSLQADDTAIYYCAKNSHGNYVGYAMDYWGQGTSVTVSS VL: DIVMTQSQKFMSTTVGDKVSIPCKASENVGAAVAWYQQKPGQSPTLLIYSASNRYTGIPDRFTGSGSGTDFTLTIRTVQSEDLADYFCQQYTNYPTFGGGTKLEIKR', 20.9);

--- query ---
Task: Give the reported Peak (nM); thrombin generation, FVIII-neutralised plasma + 20 nM TFPIα; 200 nM antibody for this binder. mAb 1F91 (antibody, IgG1, V domains shown) VH: DVQLQESGPGLVKPSQSLSLTCTVSGYSITSDYAWNWIRQFPGNKLEWMGYISYSGSTSYNPSLKSRISITRDTSKNQFFLQLNSVTTEDTATYYCARWAYDGPWGQGTLVTVSA VL: QIVLSQSPALLSASPGEKVTMTCRASSSVSHMHWYQQKPGSSPKPWIYATSNLASGVPARFSGSGSGTSYSLTITRVEAEDAATYYCQQWSSNPFTFGSGTKLEIKR
Result: 0
